Examples of molecules with documented Diuretic activity follow.
- System: Rattus norvegicus
- experiment.description: Diuretic effect was evaluated in the conscious female rat by natriuretic assay involving metabolic caging at dose 20 mg/kg
- Type: functional, Urine
Report the figure in mL/g without appending any unit label.

>>> measured_value("NS(=O)(=O)c1cc(C(=O)O)c(NCc2ccco2)cc1Cl [FUROSEMIDE]")
1.3
>>> measured_value("COc1ccc([C@@H]2Sc3ccccc3N(CCO)C(=O)[C@@H]2OC(C)=O)cc1")
1.28
>>> measured_value("COc1ccc([C@@H]2Sc3ccccc3N(CCO)C(=O)[C@@H]2O)cc1")
1.8
>>> measured_value("COc1ccc([C@@H]2Sc3ccccc3N(CC(=O)O)C(=O)[C@@H]2OC(C)=O)cc1")
1.75
>>> measured_value("COc1ccc([C@@H]2Sc3ccccc3N(CC(=O)O)C(=O)[C@@H]2O)cc1")
1.7

Attention now turns to another entry.
If you can, please state the reported Diuretic activity value of COc1ccc([C@@H]2Sc3ccccc3N(CCN(C)C)C(=O)[C@@H]2OC(C)=O)cc1 [DILTIAZEM] .
1.8

====

Examples of molecules with documented Kaliuretic activity follow.
- Tested on: Rattus norvegicus
- experiment.description: Kaliuretic effect was evaluated in the conscious female rat by natriuretic assay involving metabolic caging at dose 10 mg/kg
- Assay type: functional

Lab note: need Kaliuretic activity for `COc1ccc([C@@H]2Sc3ccccc3N(CC(=O)O)C(=O)[C@@H]2OC(C)=O)cc1` on Rattus norvegicus, anyone have it?
<0.9 µM/g

And for `COc1ccc([C@@H]2Sc3ccccc3N(CCO)C(=O)[C@@H]2OC(C)=O)cc1` ?
0.7 µM/g

And for `COc1ccc([C@@H]2Sc3ccccc3N(CCO)C(=O)[C@@H]2O)cc1` ?
1.1 µM/g

And for `COc1ccc([C@@H]2Sc3ccccc3N(CC(=O)O)C(=O)[C@@H]2O)cc1` ?
1.1 µM/g

====

- Tested on: Rattus norvegicus
- experiment.description: Kaliuretic effect was evaluated in the conscious female rat by natriuretic assay involving metabolic caging at dose 10 mg/kg
- Format: functional
endpoint: Kaliuretic activity

>>> measured_value("COc1ccc([C@@H]2Sc3ccccc3N(CCO)C[C@@H]2O)cc1")
"<1 µM/g"

Lab note: need Kaliuretic activity for COc1ccc([C@@H]2Sc3ccccc3N(CCN(C)C)C(=O)[C@@H]2OC(C)=O)cc1 [DILTIAZEM] on Rattus norvegicus, anyone have it?
<0.8 µM/g

And for `CCOC(=O)CN1C(=O)[C@H](O)[C@H](c2ccc(OC)cc2)Sc2ccccc21` ?
<1.1 µM/g

And for `COc1ccc([C@@H]2Sc3ccccc3N(CCOC(C)=O)C(=O)[C@@H]2OC(C)=O)cc1` ?
<0.95 µM/g
